system: Escherichia coli TOP10; experiment: shrunken log2 fold change of peptide-encoding DNA abundance (4.5 h post-induction vs induction); higher = less antimicrobial activity (less host growth inhibition); conditions: time post-induction: 4.5 h; library: site-saturation at positions 5, 18, 19, 20;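 note: peptides expressed intracellularly from a pBAD plasmid library in pooled LB shake-flask culture, induced with 0.3% L-arabinose, DNA abundance read by NGS, three biological replicates, DESeq2 with apeglm shrinkage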
I'd appreciate it if you could supply shrunken log2 fold change values for the items below.
API note: the answer field is a bare number with no unit suffix.

What the record says about RRIRMRPPRLPRPRPRPLPGPRP : shrunken log2 fold change is 0.8

What the record says about RRIRPRPPRLPRPRPRPVNGPRP : shrunken log2 fold change is 0.0391

What the record says about RRIRERPPRLPRPRPRPNPDPRP : shrunken log2 fold change is -0.2

What the record says about RRIRFRPPRLPRPRPRPNDIPRP : shrunken log2 fold change is -0.169

What the record says about RRIRWRPPRLPRPRPRPASNPRP : shrunken log2 fold change is -0.0347

What the record says about RRIRKRPPRLPRPRPRPHNIPRP : shrunken log2 fold change is -0.1

What the record says about RRIRQRPPRLPRPRPRPDTTPRP : shrunken log2 fold change is 0.0217

What the record says about RRIRYRPPRLPRPRPRPKIKPRP : shrunken log2 fold change is -0.583

What the record says about RRIRIRPPRLPRPRPRPYWEPRP : shrunken log2 fold change is -0.152

What the record says about RRIRKRPPRLPRPRPRPCYVPRP : shrunken log2 fold change is -0.69

What the record says about RRIRTRPPRLPRPRPRPPSDPRP : shrunken log2 fold change is 0.498

What the record says about RRIRRRPPRLPRPRPRPTGPPRP : shrunken log2 fold change is 0.369

What the record says about RRIRWRPPRLPRPRPRPFMAPRP : shrunken log2 fold change is -0.121

What the record says about RRIRVRPPRLPRPRPRPNNHPRP : shrunken log2 fold change is -0.454

What the record says about RRIRSRPPRLPRPRPRPERYPRP : shrunken log2 fold change is -0.037

What the record says about RRIRIRPPRLPRPRPRPMHNPRP : shrunken log2 fold change is -0.332

What the record says about RRIRNRPPRLPRPRPRPIICPRP : shrunken log2 fold change is -0.0922

What the record says about RRIRDRPPRLPRPRPRPYYTPRP : shrunken log2 fold change is -0.817

What the record says about RRIRERPPRLPRPRPRPRPKPRP : shrunken log2 fold change is 0.194

What the record says about RRIRARPPRLPRPRPRPMFYPRP : shrunken log2 fold change is -0.282

What the record says about RRIRFRPPRLPRPRPRPVTEPRP : shrunken log2 fold change is -0.0132

What the record says about RRIRLRPPRLPRPRPRPCVLPRP : shrunken log2 fold change is -0.44

What the record says about RRIRTRPPRLPRPRPRPFYGPRP : shrunken log2 fold change is -0.473

What the record says about RRIRTRPPRLPRPRPRPCHGPRP : shrunken log2 fold change is -0.0399

What the record says about RRIRLRPPRLPRPRPRPRVDPRP : shrunken log2 fold change is -0.0238

What the record says about RRIRHRPPRLPRPRPRPWTDPRP : shrunken log2 fold change is -0.0171

What the record says about RRIRDRPPRLPRPRPRPNRAPRP : shrunken log2 fold change is 0.563

What the record says about RRIRCRPPRLPRPRPRPKCNPRP : shrunken log2 fold change is -0.201

What the record says about RRIRPRPPRLPRPRPRPYSRPRP : shrunken log2 fold change is -0.368

What the record says about RRIRMRPPRLPRPRPRPNWNPRP : shrunken log2 fold change is 0.344

What the record says about RRIRTRPPRLPRPRPRPKFGPRP : shrunken log2 fold change is -0.00436

What the record says about RRIRWRPPRLPRPRPRPAYAPRP : shrunken log2 fold change is 0.531
